target: Cannabinoid receptor 2 (Homo sapiens, UniProt P34972); assay: Agonist activity at human CB2 receptor
Sequence (P34972 whole entry): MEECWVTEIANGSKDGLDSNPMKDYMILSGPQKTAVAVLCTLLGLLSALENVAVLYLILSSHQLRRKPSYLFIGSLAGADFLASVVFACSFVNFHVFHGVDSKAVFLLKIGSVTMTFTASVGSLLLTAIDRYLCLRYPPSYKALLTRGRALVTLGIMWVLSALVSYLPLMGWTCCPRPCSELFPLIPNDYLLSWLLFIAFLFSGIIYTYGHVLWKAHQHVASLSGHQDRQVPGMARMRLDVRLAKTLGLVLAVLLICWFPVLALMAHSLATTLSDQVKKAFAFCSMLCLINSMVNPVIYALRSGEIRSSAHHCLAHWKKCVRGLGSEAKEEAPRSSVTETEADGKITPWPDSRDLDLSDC
# EC50 annotations
Express your answer in nM, writing the number without its unit.

Worked cases, EC50 given:
> print(dat)
                            chemical.string  value.measured
1  C[C@@H]1C=C[C@H](C)N1c1ccc(-c2cccc(Cl)c2Cl)nn1           0.631
2  C[C@@H]1CC[C@H](C)N1c1ccc(-c2cccc3cccnc23)nn1            79.4
3  C[C@@H]1CC[C@H](C)N1c1ccc(-c2c[nH]c3ccccc23)nn1             251
4        Clc1cccc(-c2ccc(NC3CCCCC3)nn2)c1Cl             200
5         Clc1cccc(-c2cnc(N3CCOCC3)cn2)c1Cl            39.8

query: Recall the recorded EC50 for `FC(F)(F)c1cccc(-c2ccc(N3CCOCC3)nn2)c1` with Cannabinoid receptor 2 (Homo sapiens, UniProt P34972) and state it.
result: 1000

###

assay: Drug level in rat blood at 1 mg/kg, po after 1 hr; assay type: ADME, organism-based; parameters: dose 1 mg/kg, route oral
measurement-label: concentration at 1 h (nM)
Your answer should be a plain number; it is taken to be in nM.

query: Fill in the blank: the reported concentration at 1 h of `C[C@@H]1CC[C@H](C)N1c1ccc(-c2cncc3ccccc23)nn1` is ____.
result: 300

###

target: UniProtKB P34972; assay: Agonist activity at human CB2 receptor relative to HU210; type: functional
Catalogue of Efficacy readings, one per entry.
Number only, in %; omit the unit.

> print(dat)
                     chemical.string  measurement.label  output.unit  value.measured
1  Clc1cccc(-c2cnc(N3CCOCC3)nc2)c1Cl           Efficacy            %              67

--- query ---
query: Record request: Efficacy value, item `Cc1ccccc1-c1ccc(N2CCOCC2)nn1`
result: 38

###

test: Oral bioavailability in rat at 3 mg/kg; format: ADME, organism-based; details: in vivo
measurement-label: bioavailability

query: Recorded bioavailability of `C[C@@H]1CC[C@H](C)N1c1ccc(-c2cncc3ccccc23)nn1` , please.
result: 26%

###

Reported EC50 values for the following compounds.
molecular target: Cannabinoid receptor 1 (Homo sapiens); experiment: Agonist activity at human CB1 receptor

// known answers, use as guide
> print(dat)
                           chemical.string  value.measured
1  Clc1cc(Cl)c(Cl)c(-c2ccc(N3CCOCC3)nn2)c1       > 31.6 µM
2            COc1ccccc1-c1ccc(N2CCOCC2)nn1       > 31.6 µM
3       Clc1cccc(-c2ccc(NC3CCCCC3)nn2)c1Cl       > 31.6 µM
4       Cc1ccc(-c2ccc(N3CCOCC3)nn2)c(Cl)c1       > 31.6 µM
5      Clc1ccc(-c2ccc(N3CCOCC3)nn2)c(Cl)c1       > 31.6 µM

Turning now to a further record.
query: Identify the measured EC50 of `C[C@@H]1CC[C@H](C)N1c1ccc(-c2cncc3ccccc23)nn1` for Cannabinoid receptor 1 (Homo sapiens).
result: 7.94 µM

###

assay: Blood clearance in rat at 1 mg/kg, iv; type: ADME, organism-based; design: dose 1 mg/kg, route intravenous
measurement-label: clearance (mL/min/kg)
Write down the numeric answer in mL/min/kg and omit the unit.

query: Request the reported clearance associated with `C[C@@H]1CC[C@H](C)N1c1ccc(-c2cncc3ccccc23)nn1`
result: 57

###

Parameter Efficacy: see the listing below.
target: Cannabinoid receptor 1 (Homo sapiens); test: Agonist activity at human CB1 receptor relative to HU210; assay type: functional
A number alone suffices; assume %.

> print(dat)
                            chemical.string                         assayed.target  measurement.label  output.unit  value.measured
1   c1ccc(COc2ccccc2-c2ccc(N3CCOCC3)nn2)cc1  Cannabinoid receptor 1 (Homo sapiens)           Efficacy            %              11
2  C[C@@H]1C=C[C@H](C)N1c1ccc(-c2cccc(Cl)c2Cl)nn1  Cannabinoid receptor 1 (Homo sapiens)           Efficacy            %              21
3  C[C@@H]1CC[C@H](C)N1c1ccc(-c2cccc3cnccc23)nn1  Cannabinoid receptor 1 (Homo sapiens)           Efficacy            %              52
4  C[C@@H]1CC[C@H](C)N1c1ccc(-c2cccc(Cl)c2Cl)nn1  Cannabinoid receptor 1 (Homo sapiens)           Efficacy            %              57

Attention now shifts to the item below.
query: # lookup: Efficacy of `C[C@@H]1CC[C@H](C)N1c1ccc(-c2cncc3ccccc23)nn1`
result: 71

###

target: Cannabinoid receptor 1 (Homo sapiens, UniProt P21554); assay: Agonist activity at human CB1 receptor
Sequence (P21554 whole entry): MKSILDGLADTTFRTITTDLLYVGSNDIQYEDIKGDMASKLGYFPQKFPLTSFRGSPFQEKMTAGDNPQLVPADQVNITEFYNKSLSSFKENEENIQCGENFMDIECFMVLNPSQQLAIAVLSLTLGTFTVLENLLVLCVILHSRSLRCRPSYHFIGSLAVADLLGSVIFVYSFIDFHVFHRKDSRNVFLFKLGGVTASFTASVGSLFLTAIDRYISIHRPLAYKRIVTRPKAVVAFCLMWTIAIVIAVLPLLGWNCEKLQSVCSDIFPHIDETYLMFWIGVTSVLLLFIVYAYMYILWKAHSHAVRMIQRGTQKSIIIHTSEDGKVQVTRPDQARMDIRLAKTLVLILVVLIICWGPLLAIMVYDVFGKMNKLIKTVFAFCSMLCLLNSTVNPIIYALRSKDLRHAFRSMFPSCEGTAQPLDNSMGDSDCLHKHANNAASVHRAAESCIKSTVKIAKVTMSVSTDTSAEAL
measurement-label: EC50

Worked examples, 2 compounds total:
> print(dat)
                            chemical.string                            assayed.target  measurement.label  value.measured
1  C[C@@H]1CC[C@H](C)N1c1ccc(-c2cccc3cccnc23)nn1  Cannabinoid receptor 1 (Homo sapiens, UniProt P21554)               EC50       > 31.6 µM
2       Clc1ccc(Cl)c(-c2ccc(N3CCOCC3)nn2)c1  Cannabinoid receptor 1 (Homo sapiens, UniProt P21554)               EC50       > 31.6 µM

query: // returns reported EC50 for input `c1ccc(COc2ccccc2-c2ccc(N3CCOCC3)nn2)cc1`
result: 3.98 µM

query: Sample `FC(F)(F)c1cccc(-c2ccc(N3CCOCC3)nn2)c1C(F)(F)F` — what was its EC50?
result: > 31.6 µM

query: Any idea what its EC50 is? The compound is `C[C@@H]1C=C[C@H](C)N1c1ccc(-c2cccc(Cl)c2Cl)nn1`
result: 6.31 µM

query: What does the data say about its EC50? Entry: `COc1ccc(-c2ccc(N3CCOCC3)nn2)c(Cl)c1`
result: > 31.6 µM

query: Field request: EC50 | item: `C[C@@H]1CC[C@H](C)N1c1ccc(-c2cc3ccccc3o2)nn1`
result: > 31.6 µM

query: Dear colleague, I am looking for the recorded EC50 of the following compound: `O=S1(=O)CCN(c2ccc(-c3cccc(Cl)c3Cl)nn2)CC1`
result: > 31.6 µM

query: Param item = `c1ccc(COc2cccc(-c3ccc(N4CCOCC4)nn3)c2)cc1` ; retrieve measured EC50.
result: > 31.6 µM

query: For the compound shown here, `FC1(F)CCN(c2ccc(-c3cccc(Cl)c3Cl)nn2)CC1` , give the reported EC50.
result: > 31.6 µM

###

Below is a list of entries, each paired with its recorded pEC50 value.
biological target: Cannabinoid receptor 2 (Homo sapiens, UniProt P34972); assay: Agonist activity at human CB2 receptor
Just the number, please; pEC50 means minus log10 of the concentration in mol/L.

> print(dat)
                 chemical.string  measurement.label  value.measured
1  Clc1ccccc1-c1ccc(N2CCOCC2)nn1              pEC50            5.80

query: Given the compound `Clc1cccc(-c2ccc(N3CCCCC3)nn2)c1Cl` , what is its reported pEC50?
result: 8.20

query: Give the measured pEC50 of `Cc1ccccc1-c1ccc(N2CCOCC2)nn1` .
result: 5.10

query: Requested field: pEC50. Item: `Clc1cccc(-c2ccc(N3CCOCC3)cc2)c1Cl`
result: 7.40

###

test: Volume of distribution at steady state in rat at 1 mg/kg, iv; type: ADME, organism-based; parameters: dose 1 mg/kg, route intravenous; conditions: in vivo, read-out: Vdss
measurement-label: Vd (L/kg)
Just the number in L/kg, nothing appended.

query: Give its Vd value. Item: `C[C@@H]1CC[C@H](C)N1c1ccc(-c2cncc3ccccc23)nn1`
result: 1.7

###

assay: Cmax in rat brain at 6.6 uM; type: ADME, organism-based; parameters: dose 6.6 uM
measurement-label: Cmax at 6.6 µM (µM)
Report the value in µM with no unit label.

query: For the compound shown here, `C[C@@H]1CC[C@H](C)N1c1ccc(-c2cncc3ccccc23)nn1` , give the reported Cmax at 6.6 µM.
result: 11

###

assay: Half life in rat at 1 mg/kg, iv; assay type: ADME, organism-based; set-up: dose 1 mg/kg, route intravenous; conditions: in vivo
measurement-label: half-life (min)
Reply with just the number (in min).

query: Could you share which half-life value was measured for `C[C@@H]1CC[C@H](C)N1c1ccc(-c2cncc3ccccc23)nn1` ?
result: 18

Ref: ChEMBL document CHEMBL1153230
